System: rat models with focal cerebral ischemia-reperfusion (tMCAO)
Assay: Rotarod test (latent period of falling) in tMCAO model rats
Type: in vivo, SD rats
Settings: Gavage, 3 × 10^−5 mol/kg, 3 administrations, about 24 h after last administration, x ± s
VALUE TYPE: Latent period of falling (rotarod test) (s)
Response body: numeric value in s, unit text excluded.

# RECORD SMILES, Latent period of falling (rotarod test) [s]
measured = [
    ("CC(=O)Oc1ccccc1C(=O)Oc1cc(C)nn1-c1nc(C)c(C)nc1C", 49.7),
]

stdin: For the compound shown here, `Cc1cc(OC(=O)c2ccccc2)n(-c2nc(C)c(C)nc2C)n1` , give the reported Latent period of falling (rotarod test).
stdout: 43.8

stdin: Another compound: `CC(=O)Oc1cc(C)nn1-c1nc(C)c(C)nc1C`
stdout: 35.2

stdin: Moving on to the next compound: `Cc1cc(OC(=O)c2cccnc2)n(-c2nc(C)c(C)nc2C)n1`
stdout: 48.7
